Values were extracted from the RNAGym collection of RNA variant scans (doi:10.1126/science.aae0568).

B1: tRNA (parent)
chain: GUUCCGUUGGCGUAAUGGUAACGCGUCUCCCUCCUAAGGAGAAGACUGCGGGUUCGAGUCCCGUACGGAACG

variants of: B1; experiment: yeast fitness relative to wild type (ratio to wild type); higher = fitter; tRNA-Arg(CCU), competitive growth, 37 C, YPD
Variants at the floor of the assay were thinned out.
measurement.kind: yeast fitness

In [3]: df
Out[3]:
                             sequence_input  measured
0  GUUCCGUUGGCGUAAUGGUAAUGCCUCCCCCUCCUGAGGAGAAGACUGCGAGUUCGAGUCCCGUACAGAACG     ≤ 0.5
1  GUUCCAUUGGCGUAAUGGUAACGCGUCUCCCUGGUAAGGAGAAGACUGCGGGUUCGAGUCACGUACUGAACG     ≤ 0.5
2  GUUCCGUUGGCGUAAUGGUAACGCGUCUCCCUCCUAAGGGGGAGACUGCGGGUUCGAGCCCCGUACGGAACG     0.618
3  GUUCCGUUGGCGUAAUGGUAACGCGUCUCCCUCCUAAGGGAAAGACUGCGGGUUUGAGUCCCGUACGGAACG     ≤ 0.5
4  GUUCCGCUGGCGUAAUGGUAACGCGUCUCCCUCCUAAGGAACAGACUGCCGGUUCGAGUCCCGUACGGACCG     ≤ 0.5

Lab book: yeast fitness of GUUCCGUUGGCCUAAUGGUAACGCGUCUCCUUCCUAAGGAGAAGACUGCGGGUUCGAGUCCCGUACGCAACG noted as 0.505

Lab book: yeast fitness of GUUCCGUUCGCGUAAUCGUAACGCGUCUCCCUCCUAAGCAGAAGACUGCGGGUUCGAGUCCCGUACGGAUCG noted as ≤ 0.5

Lab book: yeast fitness of GUUCCGUUGGCGUAAUGGUAAGGCGUCUCCCUCGUAAGGAGAAGACUGCGGGUUCGAGUCGCGUACGGGACG noted as ≤ 0.5

Lab book: yeast fitness of GUCCCGUUGGCGUAAUGGUAACGCGUCUUCCUACUAAGGCGAAGACUGCGGGUUCGAGUCCCGUACGGAACG noted as ≤ 0.5

Lab book: yeast fitness of GUUCCGGUGGCGUAAUGGUAACGCGUCUCGCUCCUAAGGAGAAGACUGCGGGUUCAAGUCCCGUACGGAACG noted as 0.505

Lab book: yeast fitness of GUUCCGAUGGCGUAAUGGUAACGCGUCUCCCUCCUAAGGAGAAGACUGCGAAUUCGAGUCCCGUACGGAGCG noted as ≤ 0.5
